- System: MDA-MB-435
- assay.method.text: NCI tumour cell line growth inhibition, 48 h
Active and inactive are the calls of the source. No stated cut-off is given here; in the data, active = GI50 up to about 1.1 µM and inactive = higher.
Possible outcomes: class 1 (active), class 0 (inactive)

* CC(C)=CCC[C@]1(C)C=Cc2c(O)c3c(c(CC=C(C)C)c2O1)O[C@]12C(=C[C@@H]4CC1C(C)(C)O[C@@]2(C/C=C(/C)C(=O)O)C4=O)C3=O | class 1
* O=C1C=C(Cl)C(=O)C(c2ccc(Cl)cc2)=C1 | class 0
* Cc1[nH]nc(-c2ccon2)c1N=O | class 0
* CC(=O)N1OC(C)CC1Nc1ccc(Br)cc1 (centres undefined) | class 1
* COc1cc(Nc2cnc3cc(F)c(F)cc3n2)cc(OC)c1 | class 0
* CN1CCC2(c3ccccc3)CC(=O)/C(=C/c3ccc(Cl)c(Cl)c3)C1C2.[O-][Cl+3]([O-])([O-])O (centres undefined) | class 0
* CC1(C)OC2C(O)C(CO)OC2(C(F)F)O1 (centres undefined) | class 0
* OCC1NC(COC2OC(CO)C(O)C(O)C2O)C(O)C(O)C1O (centres undefined) | class 0
* CC1=C2O[C@]3(O)C=C2C(=C(O)C1=O)[C@@H]1O[C@H](CC[C@H](C)/C=C(\C)C[C@@H](C)C[C@@H]3C)[C@H](C)[C@H](O)[C@H]1C [KENDOMYCIN] | class 1

====

- Tested on: IGROV-1
- assay.method.text: NCI tumour cell line growth inhibition, 48 h
Calls of active or inactive are those of the source. No stated cut-off is given here; in the data, active = GI50 up to about 1.1 µM and inactive = higher.
readout.name: GI50

* Cn1c(-c2cccc(N)c2)[n+](C)c2ccccc21 | > 100 µM (inactive)
* CCOC(=O)CC1=N/C(=N/c2cc(Cl)ccc2Cl)SC1 | > 100 µM (inactive)
* C=C1C[C@]23CCC4C(C)(C)C(=O)CC[C@]4(C)C2C[C@H]1C(O)C3=O (stereo not given in full) | > 75 µM (inactive)
* O=C(Nc1cc(C(F)(F)F)ccc1Cl)C(=O)C(C(=O)c1ccc2ccccc2c1)C1OC(=O)c2ccccc21 (stereo not given) | 23.3 µM (inactive)
* OC1C2[C@@H](O)CCCN2C[C@@H](O)[C@H]1O (stereo not given in full) | > 100 µM (inactive)

====

- System: CAKI-1
- assay.method.text: NCI tumour cell line growth inhibition, 48 h
Activity calls are given as the source filed them. Cut-off read from the data, not from the text of the source: active = GI50 up to about 1.1 µM and inactive = higher.
Possible outcomes: class 1 (active), class 0 (inactive)

* CC(C)c1ccc(/C=C(\NC(=O)c2ccccc2)c2nc3ccccc3[nH]2)cc1 | class 0
* CC(C)(C)c1cc(C(C)(C)C)c(SS(=O)(=O)O)c(O)c1O | class 0
* CCOP(=O)(OCC)C1C(CO)OC(n2ccc(=O)[nH]c2=O)C1O (stereo not drawn) | class 0
* CCOC(=O)c1ncn(CCc2ccc(Cl)cc2)c1C | class 0
* C1CC2=C(C1)C1=S(S2)SC2=C1CCC2 | class 0
* COc1ccc2c(c1)CCC(CN1CCN(CCOC(c3ccccc3)c3ccccc3)CC1)C2O (stereo not drawn) | class 0
* CC1(C)OC2C(O)C(CO)OC2(C(F)F)O1 (stereo not drawn) | class 0
* O=C1C2=Cc3ccccc3OC2(O)Oc2ccccc21 (stereo not drawn) | class 0
* CC1=C2[C@@H](c3ccccc3)C3C=CC2(C=C3C(F)(F)F)N(C(=O)NC2CCCCC2)C1=O (stereo partly drawn) | class 0
* C[N+](C)(C)CC(=O)N/N=C\c1c(O)ccc2ccccc12 | class 0
* CC1=CC(=O)/C(=C/NC(=S)NCCc2ccccc2)C(=O)O1 | class 0
* CC(=O)c1c(O)c(C)c(O)c(Cc2c(O)c3c(c(C(=O)/C=C/c4ccccc4)c2O)OC(C)(C)C=C3)c1O [ROTTLERIN] | class 0
* COc1ccc(Nc2nc3ccccc3nc2-c2cccs2)cc1 | class 0
* COc1ccccc1NC(=S)N/N=C/c1ccccn1 | class 1
* O=C(O)CCC1CCc2cccc3occ1c23 (stereo not drawn) | class 0
* COc1cc(/C=C/c2ccc(C)cc2)cc(OC)c1OC | class 0
* COc1cc2c3c(cc(Cl)nc3c1OC)C(O)(CC(C)=O)C(=O)N2 (stereo not drawn) | class 0
* CCOC(=O)c1cc(C2=C(S)N(CC(C)CC)CC2)c(C(=O)CC)[nH]1 (stereo not drawn) | class 0
* CC/C(=C/OC)P1(=O)OC(C)(C)CN1C(C)(C)C (stereo not drawn) | class 0
* CN(C)Cc1cc(C(=O)/C=C/c2cccc(Cl)c2)cc(CN(C)C)c1O | class 0
* Cc1cc2nc3c(C#N)c4c(c(Cl)n3c2cc1C)CCC4 | class 0
* CC(=O)/N=C1\NC(=O)/C(=C/c2ccc(Cl)cc2Cl)N1C | class 0
* Cc1cc2c(c(N)c1C)C(=O)c1ccccc1C2=O | class 0
